- Test system: E. coli ATCC25922
- Protocol: Antibiotic susceptibility (MIC), automated identification system
- Type: cell-based
- Cond: Escherichia coli, ATCC25922; Supplementary Table 1
Quick list: MIC per entry.

GET /value?item= CO/N=C(\C(=O)N[C@@H]1C(=O)N2C(C(=O)O)=C(COC(C)=O)CS[C@H]12)c1csc(N)n1 &field=MIC returns ≤ 1 µg/mL

GET /value?item= C[C@@H](O)[C@H]1C(=O)N2C(C(=O)O)=C(SCCN=CN)C[C@H]12 &field=MIC returns ≤ 1 µg/mL

GET /value?item= CCN1CCN(C(=O)N[C@@H](C(=O)N[C@@H]2C(=O)N3[C@@H]2SC(C)(C)[C@@H]3C(=O)O)c2ccccc2)C(=O)C1=O &field=MIC returns ≤ 4 µg/mL

GET /value?item= CNC(C)C1CCC(N)C(OC2C(N)CC(N)C(OC3OCC(C)(O)C(NC)C3O)C2O)O1 (stereo not shown) &field=MIC returns ≤ 2 µg/mL

GET /value?item= C[C@H]1COc2c(N3CCN(C)CC3)c(F)cc3c(=O)c(C(=O)O)cn1c23 &field=MIC returns ≤ 1 µg/mL

GET /value?item= NCC[C@H](O)C(=O)N[C@@H]1C[C@H](N)[C@@H](O[C@H]2O[C@H](CN)[C@@H](O)[C@H](O)[C@H]2O)[C@H](O)[C@H]1O[C@H]1O[C@H](CO)[C@@H](O)[C@H](N)[C@H]1O &field=MIC returns ≤ 8 µg/mL

GET /value?item= CC(C)(O/N=C(\C(=O)N[C@@H]1C(=O)N2C(C(=O)[O-])=C(C[n+]3ccccc3)CS[C@H]12)c1csc(N)n1)C(=O)O &field=MIC returns ≤ 1 µg/mL

Cited source for all entries: paper PMC6684654
